All figures here come from paper doi:10.1101/620765v2.

systemUnderTest: human αVβ3 expressed in HEK-293 cells (HEK-αVβ3) (Homo sapiens, UniProt P05106+P06756)
experimentalDetails: exposure of mAb AP5
Type: cell-based
Recorded EC50 for the following compounds

COc1ccc(C(CC(=O)O)N2CCN(CCCc3ccc4c(n3)NCCC4)C2=O)cn1 (racemic) [A, TDI-806] | 0.012 µM
O=C(CCCCc1ccc2c(n1)NCCC2)NCC[C@@H](Nc1nc2ccccc2o1)C(=O)O [TDI-4158] | > 10 µM
O=C(O)CCCNC(=O)CCCCc1ccc2c(n1)NCCC2 [D, TDI-2668] | > 10 µM
O=C(CCCCc1ccc2c(n1)NCCC2)NCC[C@H](Nc1nc2ccccc2o1)C(=O)O [TDI-4160] | > 10 µM

Incoming: Consider the compound O=C(O)CCNC(=O)CCCCc1ccc2c(n1)NCCC2 [C, TDI-1367] and give its measured EC50.
Outgoing: > 10 µM

====

systemUnderTest: human αVβ3 expressed in HEK-293 cells (HEK-αVβ3) (Homo sapiens, UniProt P05106+P06756)
experimentalDetails: inhibition of HEK-αVβ[…] cell adhesion to immobilized fibrinogen
Assay type: cell-based
pIC50: −log10 of the molar value.
observedProperty: pIC50

Some solved cases for reference:
O=C(CCCCc1ccc2c(n1)NCCC2)NCCC(NC(=O)c1nc2ccccc2s1)C(=O)O (racemic) [F, TDI-3909] | 7.31
O=C(O)CCNC(=O)CCCCc1ccc2c(n1)NCCC2 [C, TDI-1367] | 6.12
COc1ccc(C(CC(=O)O)N2CCN(CCCc3ccc4c(n3)NCCC4)C2=O)cn1 (racemic) [A, TDI-806] | 8.52

I = O=C(O)CCCNC(=O)CCCCc1ccc2c(n1)NCCC2 [D, TDI-2668]
II = O=C(CCCCc1ccc2c(n1)NCCC2)NCC[C@@H](Nc1nc2ccccc2o1)C(=O)O [TDI-4158]
Incoming: Lower value for measured pIC50? Options: I , II # answer = label of selected item
Outgoing: I
(I: 5.99, II: 6.91)

====

systemUnderTest: human αVβ3 expressed in HEK-293 cells (HEK-αVβ3) (Homo sapiens, UniProt P05106+P06756)
experimentalDetails: cell-based
Design: species or system HEK-293 expressing human αVβ3
observedProperty: pIC50
For clarity, pIC50 is expressed as the negative log10 of concentration in mol/L.

Incoming: API: value(readout= pIC50, system= human αVβ3 expressed in HEK-293 cells (HEK-αVβ3) (Homo sapiens, UniProt P05106+P06756), query= O=C(CCCCc1ccc2c(n1)NCCC2)NCCC(Nc1nc2ccccc2o1)C(=O)O (racemic) )
Outgoing: 6.76

====

systemUnderTest: human αVβ3 expressed in HEK-293 cells (HEK-αVβ3) (Homo sapiens, UniProt P05106+P06756)
experimentalDetails: inhibition of HEK-αVβ[…] cell adhesion to immobilized fibrinogen
Type: cell-based
condition: 1 mM Mg2+, 2 mM Ca2+, pH 7.4, room temperature
observedProperty: pIC50
For clarity, pIC50 is expressed as the negative log10 of concentration in mol/L.

Incoming: Consider the compound O=C(CCCCc1ccc2c(n1)NCCC2)NCC[C@H](Nc1nc2ccccc2o1)C(=O)O and give its measured pIC50.
Outgoing: 6.73
